- System Tested: Protein skinhead-1 (Caenorhabditis elegans, UniProt P34707)
- Sequence (P34707 whole entry): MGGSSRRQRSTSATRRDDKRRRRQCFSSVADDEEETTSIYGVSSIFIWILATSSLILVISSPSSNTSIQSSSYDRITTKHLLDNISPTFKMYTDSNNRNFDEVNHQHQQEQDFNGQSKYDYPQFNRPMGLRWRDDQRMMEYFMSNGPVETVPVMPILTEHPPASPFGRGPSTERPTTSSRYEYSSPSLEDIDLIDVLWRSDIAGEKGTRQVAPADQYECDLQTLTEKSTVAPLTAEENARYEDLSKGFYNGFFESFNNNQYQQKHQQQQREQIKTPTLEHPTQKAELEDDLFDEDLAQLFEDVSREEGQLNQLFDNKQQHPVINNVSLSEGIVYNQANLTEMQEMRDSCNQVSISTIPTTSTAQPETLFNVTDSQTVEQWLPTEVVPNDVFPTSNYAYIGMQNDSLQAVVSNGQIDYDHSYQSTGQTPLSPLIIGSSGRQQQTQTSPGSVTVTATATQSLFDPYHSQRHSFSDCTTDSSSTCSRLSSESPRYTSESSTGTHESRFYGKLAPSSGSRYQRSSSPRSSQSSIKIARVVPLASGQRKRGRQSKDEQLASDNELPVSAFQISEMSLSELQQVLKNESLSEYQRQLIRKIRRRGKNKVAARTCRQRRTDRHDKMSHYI
- Format: functional
Calls of active or inactive are those of the source.
Parameter: IC50

Report IC50 for every entry below.
1. C=CCSc1nnc(-c2ccc(Cl)cc2Cl)o1
2. Cc1c(C)n(Cc2ccccc2)c2ccc(C(=O)OCCN(C)C)cc12

1: 7.91 µM (active); 2: 58.2 µM (inactive)

Report IC50 for every entry below.
1. CCOC(=O)C(CSCC(=O)c1ccc(Cl)cc1Cl)NC(=O)OC(C)(C)C (stereo unspecified)
2. COc1cc2sc3cc(NCc4ccc(C)o4)ccc3c(=O)c2cc1OC
3. FCCCOc1ccc(-c2nccc(-c3ccccn3)n2)cc1
4. Fc1ccc(Nc2cccc3nccnc23)cc1

1. > 100 µM (inactive)
2. > 100 µM (inactive)
3. 17.9 µM (active)
4. 34.1 µM (active)

====

- System Tested: Voltage-gated inwardly rectifying potassium channel KCNH2 (Homo sapiens, UniProt Q12809);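 further: confirmatory quantitative high-throughput screen measuring inhibition of hERG channel activity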
- Sequence (Q12809 whole entry): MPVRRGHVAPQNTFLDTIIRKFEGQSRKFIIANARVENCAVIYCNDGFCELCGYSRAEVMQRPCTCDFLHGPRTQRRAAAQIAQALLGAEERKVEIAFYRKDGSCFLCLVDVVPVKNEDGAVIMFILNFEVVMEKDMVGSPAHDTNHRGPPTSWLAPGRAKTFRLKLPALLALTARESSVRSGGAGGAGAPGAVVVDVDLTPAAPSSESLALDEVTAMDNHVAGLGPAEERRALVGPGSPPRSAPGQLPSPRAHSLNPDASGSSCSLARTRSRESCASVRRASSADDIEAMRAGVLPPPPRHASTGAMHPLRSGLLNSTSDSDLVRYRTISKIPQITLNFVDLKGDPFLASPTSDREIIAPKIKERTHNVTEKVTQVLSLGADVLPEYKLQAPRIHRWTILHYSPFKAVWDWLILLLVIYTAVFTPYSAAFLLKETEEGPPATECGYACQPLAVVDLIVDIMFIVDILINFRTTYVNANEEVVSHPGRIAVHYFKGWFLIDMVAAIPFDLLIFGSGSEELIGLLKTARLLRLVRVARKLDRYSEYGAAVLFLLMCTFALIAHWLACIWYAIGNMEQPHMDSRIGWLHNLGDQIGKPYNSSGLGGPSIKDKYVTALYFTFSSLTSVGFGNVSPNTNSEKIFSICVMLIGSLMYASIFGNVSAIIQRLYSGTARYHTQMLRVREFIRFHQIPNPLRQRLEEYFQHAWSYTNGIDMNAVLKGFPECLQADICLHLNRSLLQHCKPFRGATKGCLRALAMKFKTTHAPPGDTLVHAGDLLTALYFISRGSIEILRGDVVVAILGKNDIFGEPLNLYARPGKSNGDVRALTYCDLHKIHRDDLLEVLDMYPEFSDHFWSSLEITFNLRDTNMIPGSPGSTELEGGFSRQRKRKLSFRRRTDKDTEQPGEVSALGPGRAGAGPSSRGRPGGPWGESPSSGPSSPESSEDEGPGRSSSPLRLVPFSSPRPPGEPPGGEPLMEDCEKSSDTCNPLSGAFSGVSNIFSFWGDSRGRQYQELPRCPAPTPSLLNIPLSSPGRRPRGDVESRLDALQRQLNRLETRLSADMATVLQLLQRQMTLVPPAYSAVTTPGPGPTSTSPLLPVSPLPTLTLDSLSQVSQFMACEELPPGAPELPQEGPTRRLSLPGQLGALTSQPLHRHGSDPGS
- Measurement Context: Potency
Answer each item with its documented AC50.

For orientation, consider the following solved cases.
CNC(=O)OCC[N+](C)(C)C [METHYLCARBAMYLCHOLINE CHLORIDE] = 35.5 µM (inconclusive)
CC(C)N=C=NC(C)C = 35.5 µM (inconclusive)
CCCN(CCC)c1c([N+](=O)[O-])cc(C(F)(F)F)cc1[N+](=O)[O-] = 14.1 µM (inconclusive)

Data request, read-out AC50, for COc1cc(CNC(=O)CCCCCCC(C)C)ccc1O [DIHYDROCAPSAICIN] 35.5 µM (inconclusive)

====

Answer each item with its documented AC50.
- System Tested: Cytochrome P450 2C9 (Homo sapiens)
- Sequence (P11712 whole entry): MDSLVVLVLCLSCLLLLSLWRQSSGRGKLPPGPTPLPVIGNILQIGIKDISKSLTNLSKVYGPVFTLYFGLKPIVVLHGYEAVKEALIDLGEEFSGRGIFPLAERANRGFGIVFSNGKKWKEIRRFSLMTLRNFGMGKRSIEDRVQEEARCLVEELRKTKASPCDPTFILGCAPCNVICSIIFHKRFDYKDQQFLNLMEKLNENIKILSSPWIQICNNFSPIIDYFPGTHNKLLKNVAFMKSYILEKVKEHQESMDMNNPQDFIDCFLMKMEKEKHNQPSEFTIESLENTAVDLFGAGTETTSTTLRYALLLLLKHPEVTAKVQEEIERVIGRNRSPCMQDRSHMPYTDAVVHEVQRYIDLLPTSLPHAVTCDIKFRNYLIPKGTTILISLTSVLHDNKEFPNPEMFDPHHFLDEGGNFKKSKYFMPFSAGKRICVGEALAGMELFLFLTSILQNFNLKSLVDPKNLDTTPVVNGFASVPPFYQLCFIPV

For orientation, consider the following solved cases.
Cc1ccc(C(=O)NCCCN2CCOCC2)cc1N1CCCC1=O = 1.26 µM (inconclusive)
CC12COC3(C(=O)Nc4nccs4)CC1CCC32C (stereo not given) = 0.01 µM (inconclusive)
CC(=O)NN1C(=O)/C(=C\c2ccc(C)cc2)SC1=S = 28.2 µM (inconclusive)
CNC(=O)c1cc2c(cn1)[nH]c1ccccc12 = 31.6 µM (inconclusive)
COc1ccc(-c2coc3cc(OC)cc(O)c3c2=O)cc1 [4',7-DIMETHOXY-5-HYDROXYGENISTEIN] = 2.82 µM (inconclusive)

Report AC50 for every entry below.
1. Cc1ccccc1-n1cnc2cc(NCc3cccs3)ccc21
2. CS(=O)(=O)Nc1cccc(-c2nc(NCc3cccnc3)c3ccccc3n2)c1

1. 39.8 µM (inconclusive)
2. 1 µM (inconclusive)

Report AC50 for every entry below.
1. CCCCN1C(=O)C(NC(=O)CC(C)C)(C(F)(F)F)C2=C1CC(C)(C)CC2=O (stereo not given)
2. CCOCC(=O)Nc1cc(-c2cn3cccnc3n2)ccc1C
3. C/C(=N/NC(=O)c1cccs1)c1ccc(NC(=O)COc2ccc(Cl)cc2Cl)cc1
4. COc1ccccc1CN1CCCC2(CCN(C(=O)c3ccncc3)CC2)C1
5. CCCCCCCCCCCCC/C=C\[C@@H](O)[C@@H](N)CO
6. CCn1c2ccccc2c2cc(/C=N/n3cnnc3S)ccc21

["5.62 µM (inconclusive)", "22.4 µM (inconclusive)", "4.47 µM (inconclusive)", "20 µM (inconclusive)", "39.8 µM (inconclusive)", "31.6 µM (inconclusive)"]

Report AC50 for every entry below.
1. COC(=O)C1(Cc2ccccc2)C=C2C(=C(C(C)C)C(=O)C2C)CN1 (stereo not given)
2. O=c1[nH]ncc2c3ccccc3n(Cc3ccccc3)c12
3. Cc1onc(-c2ccccc2)c1C(=O)NC(CC(=O)O)c1ccc(OC(C)C)cc1 (stereo not given)
4. COCCn1c(=O)c(-c2ccc(Cl)cc2)nc2cncnc21

1. 31.6 µM (inconclusive)
2. 2 µM (inconclusive)
3. 15.8 µM (inconclusive)
4. 31.6 µM (inconclusive)

Report AC50 for every entry below.
1. COc1ccc(C(=O)NCCCN2CCOCC2)cc1OC
2. CN1C(=O)C(=Cc2ccc(N3CCCCC3)o2)C(=O)N(C)C1=S
3. Nc1ccccc1SCc1csc(-c2ccc(Cl)cc2)n1

1. 14.1 µM (inconclusive)
2. 11.2 µM (inconclusive)
3. 5.01 µM (inconclusive)
